These data points were gathered from paper PMC11062922.

Reported potency estimated from few doses values for a set of molecules
tested on: YES1; design: species or system human, MV4-11 + K-562 + COLO205 + SK-N-BE2 + OVCAR-8; settings: read-out: apparent Kd; compound concentrations:100 nM and 1000 nM (sheet 'Samples'); n = 1

Note to self: potency estimated from few doses of C=CC(=O)Nc1cc(-c2nn(C3CCC(N4CCN(C(C)=O)CC4)CC3)c3ncnc(N)c23)ccc1Oc1ccccc1 (stereo not shown) with YES1 was 918 nM

Note to self: potency estimated from few doses of NCCNS(=O)(=O)c1ccc(-c2ccnc3[nH]ccc23)cc1 [GSK977617A] with YES1 was 518 nM

Note to self: potency estimated from few doses of Cl.Cl.NCC(C(=O)Nc1cc(Br)c(-c2ccnc3[nH]ccc23)s1)c1ccccc1.NCC(C(=O)Nc1cc(Br)c(-c2ccnc3[nH]ccc23)s1)c1ccccc1 (stereo not shown) [GSK1269851A] with YES1 was 378 nM

Note to self: potency estimated from few doses of Nc1nc(N)c2nc(-c3ccccc3)[nH]c2n1 with YES1 was 1040 nM
